All figures here come from patent US20230348424A1.

- experimental-system: SOS1:KRAS (G12C) interaction (Homo sapiens (Human))
- Sequence (Q07889 564-1049, stated change not applied): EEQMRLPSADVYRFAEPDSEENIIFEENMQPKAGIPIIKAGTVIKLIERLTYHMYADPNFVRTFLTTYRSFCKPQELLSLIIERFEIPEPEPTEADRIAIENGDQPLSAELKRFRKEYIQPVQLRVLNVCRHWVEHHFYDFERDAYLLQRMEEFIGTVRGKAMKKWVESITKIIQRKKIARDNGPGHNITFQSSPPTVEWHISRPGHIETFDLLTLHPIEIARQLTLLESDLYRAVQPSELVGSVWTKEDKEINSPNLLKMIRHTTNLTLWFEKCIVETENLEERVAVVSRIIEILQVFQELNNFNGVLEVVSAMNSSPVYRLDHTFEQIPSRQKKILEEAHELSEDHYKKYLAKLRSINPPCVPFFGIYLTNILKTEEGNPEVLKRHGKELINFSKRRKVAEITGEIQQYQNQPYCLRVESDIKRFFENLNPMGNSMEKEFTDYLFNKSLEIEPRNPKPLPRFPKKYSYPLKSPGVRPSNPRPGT
- protocol-notes: SOS1 KRas(G12C) FRET Assay
- study-conditions: 0.5 nM His10-SOS1 (res. 564-1049), 2.5 nM GST-KRAS G12C (res. 1-169), 2 hrs at RT
pIC50: −log10 of the molar value.
Overview of reported pIC50 across a group of compounds:

compound	pIC50
Cc1c([C@@H](C)NC(=O)c2cn(C3CCOCC3)c(=O)cc2N[C@H]2[C@@H]3CN(C)C[C@@H]32)cccc1C(F)(F)F [Example 26]	7.57
C[C@@H](NC(=O)c1cn(C2(C(F)F)CC2)c(=O)cc1N[C@@H]1CCN2CCC[C@@H]2C1)c1cccc(C(F)F)c1F (single isomer, unassigned) [Example 306]	7.38
C[C@@H](NC(=O)c1cn(C2(C(F)F)CC2)c(=O)cc1N[C@H]1C[C@@H]2C[C@H]1CN2C)c1cccc(C(F)F)c1F (single isomer, unassigned) [Example 237]	7.71
Cc1c([C@@H](C)NC(=O)c2cn(C3CCOCC3)c(=O)cc2N[C@@H]2C[C@@H]3CC[C@H]2N3C)cccc1C(F)(F)F (single isomer, unassigned) [Example 37]	7.48
C[C@@H](NC(=O)c1cn(C2(CF)CC2)c(=O)cc1N[C@@H]1[C@@H]2CC[C@H]1CN(C)C2)c1cccc(C(F)F)c1F (single isomer, unassigned) [Example 261]	7.38
